Readings of recombinant UMI read abundance (log10) for the listed sequences
MEASUREMENT_DESCRIPTION: recombinant UMI read abundance after kanamycin selection (control-corrected) (log10(CPM+1)); higher = more efficient recombination; extreme values may be limits of the assay; sequences stand for … in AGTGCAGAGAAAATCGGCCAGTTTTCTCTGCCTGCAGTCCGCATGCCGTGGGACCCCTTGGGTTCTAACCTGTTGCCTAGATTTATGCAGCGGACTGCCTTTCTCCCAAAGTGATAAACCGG…AGGTTGGTTTCACT; site = the 11-nt donor;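 note: IS621 bridge recombinase in Escherichia coli cells against a fixed T5 target plasmid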
Respond numerically, and do not add a unit to the figure.

TTACTAACATGGACCGGTTTTCCCGGTAATCCGTATTTGGA (site ATACTAACTTC)    0.0425

The reported recombinant UMI read abundance (log10) of the sequence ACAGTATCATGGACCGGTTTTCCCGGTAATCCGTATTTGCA (site ACAGTAACTAG) was 0

The reported recombinant UMI read abundance (log10) of the sequence GGGTTGACATGGACCGGTTTTCCCGGTAATCCGTATTTGAA (site GGGTTGACTTT) was 0.979

The reported recombinant UMI read abundance (log10) of the sequence GTCGTCGCATGGACCGGTTTTCCCGGTAATCCGTATTTGCG (site GTGGTCGCTCG) was 0.00908

The reported recombinant UMI read abundance (log10) of the sequence ACCTGGACATGGACCGGTTTTCCCGGTAATCCGTATTTGGG (site ACCTTGACTCC) was 0.0114
